Entry source: patent US8791132B2

Give measured Percentage inhibition of ligand binding, Adrenergic α2A (0.1 μM) for each item. Keep answers brief.
- measured-target: human recombinant adrenergic α2A receptor (Homo sapiens)
- Construct: expressed in transfected cells; host or cells: insect Sf9 cells
- Sequence (P08913 whole entry): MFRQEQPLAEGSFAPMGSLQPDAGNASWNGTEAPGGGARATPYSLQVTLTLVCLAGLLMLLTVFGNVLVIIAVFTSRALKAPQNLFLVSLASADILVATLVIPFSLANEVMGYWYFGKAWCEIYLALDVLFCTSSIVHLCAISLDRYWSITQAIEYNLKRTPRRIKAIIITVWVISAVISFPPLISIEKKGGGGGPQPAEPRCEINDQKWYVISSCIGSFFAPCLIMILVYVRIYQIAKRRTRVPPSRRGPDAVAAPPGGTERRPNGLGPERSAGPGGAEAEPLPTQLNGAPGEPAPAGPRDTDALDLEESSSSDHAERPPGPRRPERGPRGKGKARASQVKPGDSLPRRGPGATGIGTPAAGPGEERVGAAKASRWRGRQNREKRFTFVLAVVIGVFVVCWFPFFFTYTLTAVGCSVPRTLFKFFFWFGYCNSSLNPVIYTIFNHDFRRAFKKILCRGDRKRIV
- measurement-description: Radioligand binding, adrenergic α2A ([3H]MK-912)
- test-conditions: compound at 0.1 μM; [3H]MK-912; repeat datapoints each shown; 0.1 µM
Report the figure along with its unit, number first.

Fill in Percentage inhibition of ligand binding, Adrenergic α2A (0.1 μM) for each of the 6 compounds listed.
1. CN1CCc2c(c3cc(Cl)cnc3n2CC(C)(O)c2ccc(C(F)(F)F)nc2)C1 (single isomer, unassigned) [II-109b]
2. Cc1cnc2c(c1)c1c(n2CC(C)(O)c2ccc(F)cc2)CCN(C)C1 (single isomer, unassigned) [138b]
3. CCN1CCc2c(c3cc(C)ccc3n2CC(O)c2ccc(C)cc2)C1 (single isomer, unassigned) [203a]
4. Cc1cnc2c(c1)c1c(n2CC(C)(O)c2ccc(F)cc2)CCN2CCCC12 (single isomer, unassigned) [II-149a]
5. Cc1ccc2c(c1)c1c(n2CC(O)c2cn[nH]c2)CCN(C)C1 (single isomer, unassigned) [II-106b]
6. Cc1ccc2c(c1)c1c(n2CC(CC(O)C(C)(C)C)c2ccncc2)CCN(C)C1 (single isomer, unassigned) [II-227d]

Solution:
["−10%", "4%", "71%", "53%", "8%", "6%"]

Exercise: Find Percentage inhibition of ligand binding, Adrenergic α2A (0.1 μM) (human recombinant adrenergic α2A receptor (Homo sapiens)) for the entry Cc1cnc2c(c1)c1c(n2CC(C)(O)c2ccc(C)nc2)CCN2CCCC12 (single isomer, unassigned) [148c]
Solution: −1%

----------
- measured-target: rat adrenergic α1B receptor (Rattus norvegicus, UniProt P15823)
- Construct: rat adrenergic α1B receptor obtained from Wistar Rat liver; from tissue; host or cells: Wistar rat liver
- Sequence (P15823 1-515): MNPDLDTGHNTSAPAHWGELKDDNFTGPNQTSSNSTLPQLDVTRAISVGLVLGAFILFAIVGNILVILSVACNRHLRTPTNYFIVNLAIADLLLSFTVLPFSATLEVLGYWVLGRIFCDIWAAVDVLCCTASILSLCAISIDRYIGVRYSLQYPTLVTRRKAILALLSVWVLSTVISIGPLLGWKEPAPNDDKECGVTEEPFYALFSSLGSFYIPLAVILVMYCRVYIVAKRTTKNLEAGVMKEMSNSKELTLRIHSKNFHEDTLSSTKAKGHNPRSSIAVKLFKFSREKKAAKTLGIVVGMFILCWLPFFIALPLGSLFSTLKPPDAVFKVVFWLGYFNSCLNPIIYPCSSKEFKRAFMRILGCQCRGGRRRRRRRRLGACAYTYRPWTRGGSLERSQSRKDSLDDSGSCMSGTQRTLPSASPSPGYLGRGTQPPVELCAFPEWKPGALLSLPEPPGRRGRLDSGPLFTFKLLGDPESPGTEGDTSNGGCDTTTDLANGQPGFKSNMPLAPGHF
- measurement-description: Radioligand binding, adrenergic α1B ([3H]Prazosin)
- test-conditions: compound at 0.1 μM; [3H]Prazosin; repeat datapoints each shown; 0.1 µM
Give measured Percentage inhibition of ligand binding, Adrenergic α1B (0.1 μM) for each item. Keep answers brief.
Numbers only, in %.

Exercise: For Cc1ccc2c(c1)c1c(n2CC(O)c2ccncc2)CCN2CCCC12 (single isomer, unassigned) [129c] , what is its reported Percentage inhibition of ligand binding, Adrenergic α1B (0.1 μM)?
Solution: 96

Exercise: For Cc1ccc2c(c1)c1c(n2CC(C)(O)c2cccnc2)CCN(C)CC1 (single isomer, unassigned) [II-135b] , what is its reported Percentage inhibition of ligand binding, Adrenergic α1B (0.1 μM)?
Solution: 70

Exercise: For Cc1ccc2c(c1)c1c(n2CC(O)c2ccncc2Cl)CCN(C)C1 (single isomer, unassigned) [135b] , what is its reported Percentage inhibition of ligand binding, Adrenergic α1B (0.1 μM)?
Solution: 30

Exercise: For Cc1ccc2c(c1)c1c(n2CC(C)(O)c2ccc(C(N)=O)nc2)CCN(C)C1 (single isomer, unassigned) [II-136a] , what is its reported Percentage inhibition of ligand binding, Adrenergic α1B (0.1 μM)?
Solution: 60

Exercise: For Cc1cnc2c(c1)c1c(n2CC(C)(O)c2ccc(F)cc2)CCN2CCCC12 (single isomer, unassigned) [II-149c] , what is its reported Percentage inhibition of ligand binding, Adrenergic α1B (0.1 μM)?
Solution: 49

Exercise: For Cc1ccc2c(c1)c1c(n2CC(CC(O)C(C)(C)C)c2ccncc2)CCN(C)C1 (single isomer, unassigned) [II-227c] , what is its reported Percentage inhibition of ligand binding, Adrenergic α1B (0.1 μM)?
Solution: 20

Now let's try a different one.
Exercise: For Cc1ccc2c(c1)c1c(n2CC(C)(O)c2ccc(C(N)=O)nc2)CCN(C)C1 (single isomer, unassigned) [II-136b] , what is its reported Percentage inhibition of ligand binding, Adrenergic α1B (0.1 μM)?
Solution: 31
